// reported IC50 per item
Target: T1, adrenomedullin receptor (receptor binding assay)
T1 chain 1: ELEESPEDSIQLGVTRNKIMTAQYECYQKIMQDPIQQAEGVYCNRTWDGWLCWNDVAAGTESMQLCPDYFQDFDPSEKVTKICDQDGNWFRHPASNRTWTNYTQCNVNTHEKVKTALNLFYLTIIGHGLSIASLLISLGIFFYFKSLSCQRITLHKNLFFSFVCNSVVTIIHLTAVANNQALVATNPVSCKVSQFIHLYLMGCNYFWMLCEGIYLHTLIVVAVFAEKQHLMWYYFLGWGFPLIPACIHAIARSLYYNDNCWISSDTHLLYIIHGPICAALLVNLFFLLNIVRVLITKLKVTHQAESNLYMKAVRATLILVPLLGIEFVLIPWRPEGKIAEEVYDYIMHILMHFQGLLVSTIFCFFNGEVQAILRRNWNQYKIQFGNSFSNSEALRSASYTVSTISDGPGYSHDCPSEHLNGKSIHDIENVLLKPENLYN
T1 chain 2: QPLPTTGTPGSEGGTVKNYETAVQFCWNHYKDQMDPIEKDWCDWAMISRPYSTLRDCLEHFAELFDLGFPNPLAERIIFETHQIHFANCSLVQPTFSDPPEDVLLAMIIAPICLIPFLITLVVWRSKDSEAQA
Experiment: adrenomedullin receptor binding assay, method not described
Ends that are not written are not given here.

binder	measure.unit	IC50
RVGCVLGTCQVQNLSHRLWQLMGPAGRQDSAPVDPSSPHSY-NH2 (ends and bridges not checked) [AFP-6 analog SEQ ID NO: 10]	µM	0.0071
VGMVLGTMQVQNLSHRLWQLRQDSAPVDPSSPHSY-NH2 [AFP-6 analog SEQ ID NO: 27]	µM	1
GCNTATCQVQNLSHRLWQLRQDSAPVDPSSPHSY-NH2 (ends and bridges not checked) [AFP-6 analog SEQ ID NO: 31]	µM	1
VGCVLGTCQVQNLSHRLWQLRQDSAPVEPSSPHSY-NH2 (ends and bridges not checked) [AFP-6 analog SEQ ID NO: 36]	µM	1
GCNTATCQVQNLSHRLWQLRQDSAPVEPSSPHSY-NH2 (ends and bridges not checked) [AFP-6 analog SEQ ID NO: 37]	µM	1
VGCVLGTCQVQNLSHRLWQLRQDSAPVDPSSPHSY-NH2 (ends and bridges not checked) [AFP-6 analog SEQ ID NO: 18]	µM	1
GCVLGTCQVQNLSHRLWQLRQESAPVEPSSPHSY-NH2 (ends and bridges not checked) [AFP-6 analog SEQ ID NO: 40]	µM	1
VGCVLGTCQVQNLSHRLWQLMGPAGRQDSAPVDPSSPHSY-NH2 (not fully specified; ends and bridges not checked) [Human AFP-6 [8-47]]	µM	0.0064
TQAQLLRVGCSNLSTCQVQNLSHRLWQLMGPAGRQDSAPVDPSSPHSY-NH2 (ends and bridges not checked) [AFP-6 analog SEQ ID NO: 20]	µM	0.036
GCVLGTCQVQNLSHRLWQLMGPAGRQDSAPVDPSSPHSY-NH2 (ends and bridges not checked) [AFP-6 analog SEQ ID NO: 11]	µM	0.011
